Data provenance: patent US20250332149A1

# protocol: Phase 1 study Part 2: food effect on plasma PK of LUM-201 capsule
# Assay type: in vivo, human
# conditionInfo: Part 2, Treatment B: 85.3 mg capsule, oral, 30 minutes after start of high-fat meal
valueType: λz, Arithmetic Mean (h⁻¹)

testsmiles=CC(C)(N)C(=O)N[C@H](COCc1ccccc1)C(=O)N1CCC2(CC1)CN(S(C)(=O)=O)c1ccccc12 units=h⁻¹ endpointresult=0.0829

* * *

# protocol: Phase 1 study Part 1: plasma PK and relative bioavailability of LUM-201 tablets vs capsule
# Format: in vivo, human
# conditionInfo: human, plasma, po, 85.3 mg, Part 1, Treatment D (test): 85.3 mg capsule contents in banana puree, oral, fasted; read-out: t1/2, Arithmetic Mean (converted)
valueType: half-life (h)

molecule="CC(C)(N)C(=O)N[C@H](COCc1ccccc1)C(=O)N1CCC2(CC1)CN(S(C)(=O)=O)c1ccccc12 [LUM-201]" valuetype=half-life endpointresult=8.23
